Tested on: Candida albican ATCC 96901
Experiment: In vitro antifungal activity (MIC80), Candida albican ATCC 96901
Type: cell-based
Conditions: Candida, ATCC96901; Table 2, ATCC 96901; read-out: Minimal inhibitory concentration (MIC80)
Listing of entries alongside the reported MIC80.
VALUE_KIND: MIC80 (µg/mL)

{"columns": ["MOLECULE", "VALUE_KIND", "CMP", "ASSAY_RESULT"],
 "data": [
  ["C[C@@H](N1CCN(c2cccc(N(C)CCc3cccs3)n2)CC1)[C@](O)(Cn1cncn1)c1ccc(F)cc1F", "MIC80", ">", 128],
  ["Cc1ccc(C(=O)c2cnc3sc(C(=O)N4CCN([C@H](C)[C@](O)(Cn5cncn5)c5ccc(F)cc5F)CC4)cn23)cc1", "MIC80", "=", 8],
  ["C[C@@H](N1CCCN(c2nc3ccccc3o2)CC1)[C@](O)(Cn1cncn1)c1ccc(F)cc1F", "MIC80", "=", 16],
  ["C[C@@H](N1CCN(c2ccc(OC3CCCC3)nc2)CC1)[C@](O)(Cn1cncn1)c1ccc(F)cc1F", "MIC80", "=", 4],
  ["Cc1ccc(-c2nsc(C(=O)N3CCN([C@H](C)[C@](O)(Cn4cncn4)c4ccc(F)cc4F)CC3)n2)cc1", "MIC80", ">", 128],
  ["C[C@@H](N1CCN(c2cccc(OCCN3CCOCC3)n2)CC1)[C@](O)(Cn1cncn1)c1ccc(F)cc1F", "MIC80", ">", 128],
  ["CC(N1CCN(c2ccc(N(C)CCc3cccs3)nc2)CC1)C(O)(Cn1cncn1)c1ccc(F)cc1F (stereo not shown)", "MIC80", ">", 128]
]}

* * *

Tested on: Candida albican ATCC 62342
Test: In vitro antifungal activity (MIC80), Candida albican ATCC 62342
Format: cell-based
Conditions: Candida, ATCC62342; Table 2, 62342; read-out: Minimal inhibitory concentration (MIC80)
Please respond with 1 (yes) when measured MIC80 is strictly beneath 0.5 µg/mL, and with 0 (no) in all other cases.

{"columns": ["SMILES_REPRESENTATION", "LABEL_CLASS"],
 "data": [
  ["C[C@@H](N1CCN(c2cccc(OCc3cccs3)n2)CC1)[C@](O)(Cn1cncn1)c1ccc(F)cc1F", "0 (no)"],
  ["C[C@@H](N1CCN(Cc2ccco2)CC1)[C@](O)(Cn1cncn1)c1ccc(F)cc1F", "0 (no)"],
  ["C[C@@H](N1CCN(c2nc3ccc(NCCN4CCOCC4)cc3s2)CC1)[C@](O)(Cn1cncn1)c1ccc(F)cc1F", "0 (no)"],
  ["CC(C)Oc1ccc(N2CCN([C@H](C)[C@](O)(Cn3cncn3)c3ccc(F)cc3F)CC2)cn1", "0 (no)"],
  ["C[C@@H](N1CCN(c2nc3ccccc3o2)CC1)[C@](O)(Cn1cncn1)c1ccc(F)cc1F", "1 (yes)"]
]}

* * *

Tested on: Candida albican ATCC 96901
Assay: In vitro antifungal activity (MIC80), Candida albican ATCC 96901
Type: cell-based
Conditions: Candida, ATCC96901; Table 2, ATCC 96901; read-out: Minimal inhibitory concentration (MIC80)

{"columns": ["SMILES_REPRESENTATION", "MIC80"],
 "data": [
  ["Cc1ccc(-c2noc(C(=O)N3CCN([C@H](C)[C@](O)(Cn4cncn4)c4ccc(F)cc4F)CC3)n2)cc1", "> 128 µg/mL"],
  ["C[C@@H](N1CCN(c2nc3cc(Cl)ccc3o2)CC1)[C@](O)(Cn1cncn1)c1ccc(F)cc1F", "2 µg/mL"],
  ["C[C@@H](N1CCN(C(=O)c2nc(-c3ccccc3)no2)CC1)[C@](O)(Cn1cncn1)c1ccc(F)cc1F", "> 128 µg/mL"],
  ["C[C@@H](N1CCN(c2nc3ccc(N4CCCCC4)cc3s2)CC1)[C@](O)(Cn1cncn1)c1ccc(F)cc1F", "4 µg/mL"],
  ["CCCCOc1ccc(N2CCN([C@H](C)[C@](O)(Cn3cncn3)c3ccc(F)cc3F)CC2)cn1", "8 µg/mL"],
  ["C[C@@H](N1CCN(C(=O)c2nc(-c3ccc(Br)cc3)no2)CC1)[C@](O)(Cn1cncn1)c1ccc(F)cc1F", "> 128 µg/mL"],
  ["C[C@@H](N1CCN(c2nc3ccc(N(C)CCN4CCOCC4)cc3s2)CC1)[C@](O)(Cn1cncn1)c1ccc(F)cc1F", "8 µg/mL"]
]}
